Molecular target: T1, Human IL-33-his (human, UniProt O95760 112-270, biotinylated with EZ-Link NHS-Biotin where used as IL-33-his-biotin)
T1 construct: Used plain (SPR, cell assays) and biotinylated (ELISA); also called IL-33-his-biotin
T1 sequence: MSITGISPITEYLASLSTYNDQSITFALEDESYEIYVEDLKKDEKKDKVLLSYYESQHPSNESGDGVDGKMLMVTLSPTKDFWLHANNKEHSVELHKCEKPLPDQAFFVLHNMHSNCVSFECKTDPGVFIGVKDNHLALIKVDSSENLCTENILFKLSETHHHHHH
Assay: competition ELISA, antibody mixed with IL-33-his-biotin, ST2-Fc on plate; competitor ST2-Fc
Description: ST2-Fc protein was diluted to 1 μg/mL with ELISA coating solution to coat ELISA plate with 100 μL/well. The plate was placed in a wet box at 4° C. for 16 h for coating. The ELISA plate was washed 3 times with PBST, and then was blocked with 2% BSA prepared in PBS at 200 μL/well at room temperature for 2 h. […] 2M H₂SO₄ was added with 70 μL/well to terminate development, and the absorbance was measured at 450 nm on a multifunctional microplate reader. The data were analyzed.
property: pIC50
Answers are plain numbers, as −log10 of the molar value.

Consider the worked cases shown below.
INSERT INTO measurements (binder, numeric_value) VALUES
  ('864F3-ch1 (antibody, human IgG4 S228P, kappa, V domains shown, Chimeric: murine variable regions on human IgG4 (S228P) and human kappa constant regions; also called chimeric antibody 864F3-ch1) VH: QVQLKESGPGLVAPSQSLSITCTVSGFSLTNYGVHWVRLPPGKGLEWLGVIRAGGSSDYNSALMSRLNIRKDNSKSQVFLEMNSLQTADTAMYYCARDHYFSNSYGGSPYWGQGTLVTVSA VL: DIQMTQSPASQSASLGESVTITCLASQTIATWLAWYQQKPGKSPQLLIYAATRLADGVPSRFSGSGSGTEFSFKISSLQAEDFVIYYCQQLYNTPYTFGGGTKLEIKR', 7.34),
  ('871G1-ch (antibody, human IgG4 S228P, kappa, V domains shown, Chimeric: human IgG4 (S228P) and human kappa constant regions; also called chimeric antibody 871G1-ch) VH: QVHLKESGPGLVAPSQSLSITCNVSGFSLSKYGVHWIRQTPGRGLDWLGVLRAGGTISYNSALMSRLSISEDISKSQVFLKMNDLQTDDSAIYFCARDHYYYSSFGGFASWGQGTLVTVSA VL: DIQMTQSPASQSASLGESVTITCLASQTIGAWLAWYRQQPGKSPQLLIYAATRLADGVPSRFSGSGSGTKFSFKINNLQAEDFVIYYCQQLNSTPYTFGGGTRLEMRT', 9.07);

Now for the binder whose pIC50 we want.
Recorded pIC50 for 864F3-ch2 (antibody, human IgG4 S228P, kappa, V domains shown, Chimeric: human IgG4 (S228P) and human kappa constant regions; also called chimeric antibody 864F3-ch2) VH: QVHLKESGPGLVAPSQSLSITCNVSGFSLSKYGVHWIRQTPGRGLDWLGVLRAGGTISYNSALMSRLSISEDISKSQVFLKMNDLQTDDSAIYFCARDHYYYSSFGGFASWGQGTLVTVSA VL: DIQMTQSPASQSASLGESVTITCLASQTIATWLAWYQQKPGKSPQLLIYAATRLADGVPSRFSGSGSGTEFSFKISSLQAEDFVIYYCQQLYNTPYTFGGGTKLEIKR , please?
9.24
